Below is a list of entries, each paired with its recorded cell count value.
experimental protocol: inhibitors of TNFa-induced NFkB p65 translocation, primary screen, imaging, HUVEC, MLSMR starter and 10KST1 sets (AID 438);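 note: compound added about 3h40 before a 20 min TNFalpha stimulation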
study conditions: HUVEC TNFa-induced p65 nuclear translocation; measured here: nuclei count (cytotoxicity indicator), at 2.08 µM
endpoint label: cell count

chemical string | numeric result
CCCCCCn1c(CN2CCN(Cc3ccccc3)CC2)nc2c1c(=O)n(C)c(=O)n2C | 255
O=C(NCCCn1ccnc1)c1csc2ccccc12 | 337
Nc1ccc(S(=O)(=O)c2cccc(N)c2)cc1 | 655
CCOc1ccccc1C(=O)Nn1c(C2CCC2)nc2ccccc2c1=O | 292
COC(=O)/C=c1\sc2ncnn2c1=O | 286
COc1ccccc1NC(=O)CSc1nnc(Cn2nnc(-c3ccccc3)n2)n1-c1ccccc1 | 644
COc1ccccc1OCCNC(=O)c1cccs1 | 333
O=C(NCCCN1CCCC1=O)C1CCN(S(=O)(=O)N2CCOCC2)CC1 | 195
CCOc1ccccc1N1CC(O)=C(c2nc3ccccc3s2)C1=N | 348
CN1CCN(c2nc3c(c(=O)[nH]c(=O)n3C)n2CCOc2ccccc2)CC1 | 311
O=C(O)CCc1ccc(-c2ccc(F)cc2)n1CCC(=O)O | 422
CCC(=O)Oc1ccc2c(C)cc(=O)oc2c1C | 328

###

measured target: Voltage-gated potassium channel subunit beta-2 (Rattus norvegicus)
experimental protocol: inhibitors of rat Kvbeta2 reductase activity – biochemical, NADPH fluorescence, primary screen (AID 622);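 note: slope of raw intensity against log time taken from 70 to 1610 s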
study conditions: recombinant KvBeta, 4-cyanobenzaldehyde reduction, at 10 µM, stronger effect = higher value

molecule | fluorescence slope
CCCn1c(=O)c(C(=O)NCc2ccccn2)c(O)c2ccccc21 | -0.403
CCCCOc1ccc(-c2nnn(C(C)(C)C(=O)OC)n2)cc1 | -0.502
COc1ccc(NC(=O)c2oc3ccccc3c2NC(=O)c2ccco2)cc1 | -0.411
CC(C)c1cc(C(=O)Nc2cccnc2)no1 | -0.398
C=CCn1cc(C(=O)NCCOC)c(=O)c2cc(S(=O)(=O)N(CC)CC)ccc21 | -0.607
Nc1sccc1C(=O)c1ccccc1 | -0.563
CCOC(=O)N1CCN(C(=O)CCc2c(C)nc3c(c(C)nn3-c3ccc(C)c(C)c3)c2C)CC1 | -0.594
c1ccc(-c2nc3ccccc3nc2-c2ccccn2)nc1 | -0.491
CCCC1CCC(C(=O)Nn2cnc3ccccc3c2=O)CC1 (stereo not given) | -0.478
O=C(Nc1c(C(=O)NCc2ccco2)cnn1-c1ccccc1)c1ccc(F)cc1 | -0.294
CC(C)Oc1ccc(-c2nn(-c3ccccc3)cc2/C=c2\sc3ncnn3c2=O)cc1 | -0.279
Cn1c(SCc2ccc3c(c2)OCO3)nnc1-c1ccccc1 | -0.526
O=C1C2C3C=CC(C3)C2C(=O)N1CNc1ccc(O)cc1 (stereo not given) | -0.507
COc1ccc(CN(CC(=O)NCC2CCCO2)C(=O)CCC(=O)Nc2cc(C)on2)cc1 (stereo not given) | -0.399
COc1cc(C(=O)OCc2cc3ccccc3[nH]c2=O)cc(OC)c1OC | -0.356

###

experimental protocol: reduction of polyQ htt aggregates in cells – imaging, exon1htt(103Q)mCFP cells, high-content imaging, primary screen (AID 483);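 note: compound exposure lasted 3 days before fixation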;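 for nuclei count: percent of the per-plate median nuclei count of sample wells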
study conditions: exon1htt(103Q)mCFP cell line, aggregate imaging, at 2 µM; measured here: cell count, toxicity

molecule | nuclei count
c1cncc(-c2nnc(SCCSc3nnc(-c4cccnc4)o3)o2)c1 | 75.6%
O=C(COC(=O)CCc1c[nH]c2ccccc12)NC1CCS(=O)(=O)C1 (centres undefined) | 101%
COCC(=O)n1nc(NCc2ccc(OC)cc2)nc1NCc1ccc(OC)cc1 | 101%
Cc1ccc(C)c(-c2nc3ccc(N)cc3[nH]2)c1 | 77.7%
COc1ccc(S(=O)(=O)N2CCN(S(=O)(=O)c3ccc4c(c3)OCCO4)CC2)cc1C | 114%
CCOc1cc(N2CCOCC2)c(OCC)cc1NC(=O)CSc1cccc[n+]1[O-] | 109%
O=C1c2ccccc2C(=O)N1Cc1nc2ccccc2c(=O)n1CCN1CCOCC1 | 85.7%
COc1cccc(NC(=O)COc2ccccc2C(N)=O)c1 | 83.6%
Cc1ccc(OCC(O)Cn2c(NCCc3ccccc3)nc3c2c(=O)[nH]c(=O)n3C)cc1 (centres undefined) | 107%
CC(=O)Nc1ccc(-c2nn[nH]n2)cc1Cl | 69.9%
Cn1cccc1-c1cc(C(=O)O)[nH]n1 | 56.8%
COc1ccc(-n2c(COc3ccccc3)nnc2SCc2ccc(C#N)cc2)cc1 | 56.4%
CC(=O)/C(C[N+]1(C)CCCCC1)=N\O | 107%
Cc1onc(-c2c(F)cccc2Cl)c1C(=O)Nc1nc2c(s1)CCCC2 | 101%

###

experimental protocol: inhibitors of TNFa-induced NFkB p65 translocation, primary screen, imaging, HUVEC, MLSMR starter and 10KST1 sets (AID 438);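 note: compound added about 3h40 before a 20 min TNFalpha stimulation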;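 for inhibition: signal is the nuclear over cytoplasmic p65 intensity ratio per well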
study conditions: HUVEC TNFa-induced p65 nuclear translocation; at 2 µM, stronger effect = higher value, 0% TNFa-plus-vehicle, 100% no-TNFa wells
Label TRUE when inhibition >= 10%; otherwise FALSE.

compound | label value
Cc1[nH]c2c(C)cccc2c(=O)c1Br | FALSE
CCOC(=O)c1c(NCc2ccc3c(c2)OCO3)c2ccccc2[nH]c1=O | FALSE
Cc1cc2oc(=O)cc(CN3CCCCC3)c2cc1C(C)C | FALSE
COCCCNCC(=O)Nc1ccc(OC(F)(F)F)cc1 | TRUE
O=C(c1ccc(Br)o1)N(Cc1ccccc1)c1ccccn1 | FALSE
ON=C1/C(=N\O)CC2(C/C1=N/O)OCCO2 | FALSE
COc1ccccc1N(C)S(=O)(=O)c1ccc(C(=O)NC2=NCCS2)cc1 | TRUE
COc1ccccc1C1C(C(C)=O)=C(O)C(=O)N1CCc1ccccc1 (stereo not drawn) | FALSE

###

measured target: Alpha-2C adrenergic receptor (Homo sapiens) (UniProt P18825)
Sequence (P18825 whole entry, looked up): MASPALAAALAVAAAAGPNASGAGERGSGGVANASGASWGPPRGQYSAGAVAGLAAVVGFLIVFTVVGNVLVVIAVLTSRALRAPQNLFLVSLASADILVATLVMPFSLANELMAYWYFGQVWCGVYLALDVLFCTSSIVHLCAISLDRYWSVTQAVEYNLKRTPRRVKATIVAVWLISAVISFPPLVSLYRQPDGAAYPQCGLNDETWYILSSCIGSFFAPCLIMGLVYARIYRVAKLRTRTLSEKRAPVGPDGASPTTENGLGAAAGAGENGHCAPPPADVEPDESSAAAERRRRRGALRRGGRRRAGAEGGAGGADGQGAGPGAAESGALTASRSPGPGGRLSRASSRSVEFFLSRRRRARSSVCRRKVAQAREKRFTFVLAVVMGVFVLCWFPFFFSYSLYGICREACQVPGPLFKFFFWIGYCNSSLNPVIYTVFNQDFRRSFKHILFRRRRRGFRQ
experimental protocol: compounds altering alpha2C-coupled GIRK flux – cell-based, HEK293 alpha2C/GIRK1/2, thallium flux, primary screen (AID 624);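 note: slope of fluorescence ratio to pre-addition baseline per second over 15 to 24 s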
study conditions: thallium flux BTC fluorescence, at 10 µM, actives lie on both sides
Label yes when slope >= 0.006; otherwise no.

molecule | label value
Cc1nn(C(=O)c2ccccc2)c2c1C(=O)CC(C)(C)C2 | no
CCCOC(=O)/C(C(N)=NCc1ccccc1)=C(\O)OCCC | no
COc1ccc(CCNC(=O)CSc2nnnn2-c2ccccc2OC)cc1OC | yes
COC(=O)C1=C(N)OC2=C(C(=O)CCC2)C1c1cccs1 (configuration not stated) | yes
COc1cc(OC)c(OC)cc1CN(C)CCc1ccccn1 | no
CCOC(OCC)P(=O)(C(C)C)C(C)C | no
O=C(O)CSC1CC(=O)N(c2ccc(Cl)c(Cl)c2)C1=O (configuration not stated) | no
COc1cccc(C(=O)Nc2c(C(N)=O)oc3ccccc23)c1 | yes
c1ccc(OCCCn2nnc(-c3ccncc3)n2)cc1 | no
S=C(c1ccc(N2CCOCC2)cc1)N1CCCCC1 | yes
CCn1c(SCC(=O)Nc2nc(C)cs2)nnc1-c1ccco1 | yes
COC(=O)Nc1ccc(S(=O)(=O)N2CCCCCC2)cc1 | yes
N#CC1=C(N)N(c2ccccc2)C(c2ccco2)C1(C#N)C#N (configuration not stated) | no
COc1ccc(C(=O)Nc2ccc(Cl)c(Cl)c2)c(OC)n1 | no
COc1cc(C)c(Br)cc1S(=O)(=O)N1CCOCC1 | yes

###

experimental protocol: blockers of RIG-like receptor reporter activation – cell-based, Sendai virus stimulus, luciferase, 10K MLSCN set, TLR/RLR signaling modifier project, primary screen (AID 602276);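 note: firefly luciferase from ISG56 promoter only with Renilla not read in this screen; 0% = Sendai virus plus DMSO and 100% = medium plus DMSO without virus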
study conditions: HEK293 RL24 IRF3 luciferase reporter, at 10 µM, stronger effect = higher value
Label Condition met when inhibition >= 10%; otherwise Condition not met.

molecule | label value
CC1(C(=O)NC2CCCCC2)CCC(=O)N1Cc1cccs1 (stereo not drawn) | Condition not met
COc1ccccc1C(=O)N1CCN(CCc2ccccc2)CC1 | Condition not met
CC(=O)c1ccc(NC(=O)CSc2nnc(-c3ccoc3C)n2Cc2ccccc2)cc1 | Condition not met
O=C(NCc1ccc2c(c1)OCO2)C1CCCN(S(=O)(=O)c2cccc3cccnc23)C1 (stereo not drawn) | Condition met
CCOc1ccc(S(=O)(=O)n2c(C)nc3ccccc32)cc1 | Condition met
Cc1ccc(CN2C(=O)CCC2C(=O)NCCCN2CCCC(C)C2)cc1 (stereo not drawn) | Condition not met
Cc1sc2c(c1C)CN(C1CC(C)(C)NC(C)(C)C1)CN2C(=O)c1ccco1 | Condition not met

###

experimental protocol: reduction of polyQ htt aggregates in cells – imaging, exon1htt(103Q)mCFP cells, high-content imaging, primary screen (AID 483);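 note: compound exposure lasted 3 days before fixation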
study conditions: exon1htt(103Q)mCFP cell line, aggregate imaging, at 2 µM; stronger effect = higher value

molecule | unit abbrev | inhibition of aggregation
O=S(=O)(Nn1cnnc1)c1ccccc1Cl | % | -12.3
Cc1cc(=O)oc2cc(OCC(=O)OCC(=O)N3CCc4ccccc43)ccc12 | % | -5
O=C1CC(Cc2ccccc2)C(=O)N1CCc1ccc2c(c1)OCO2 (stereo not drawn) | % | -0.2
O=c1cc(-c2ccccc2)[nH]c2nc3ccccc3n12 | % | 15.1
Cc1cc(NC(=O)C(C)(C)C)no1 | % | -18
COc1cccc(NC(=O)N2CCC(N3CCCCC3)CC2)c1 | % | 7.2
O=C(NCCCN1CCN(c2cccc(Cl)c2)CC1)c1ccc(N2CCCC2=O)cc1 | % | 11.5
COc1cccc(C(=O)Nc2ccc(NC(C)=O)cn2)c1 | % | -0.2
COC(=O)c1ccc(COc2ccc(C3C4=C(CCCC4=O)Nc4onc(C)c43)cc2)cc1 (stereo not drawn) | % | -8.3
CCN1C(=C2C(=O)c3ccccc3C2=O)C=Cc2ccccc21 | % | -4
CC1(C)Cc2c(c(=S)nc(-c3ccccc3)n2CCO)CO1 | % | 19
CCOc1ccc(N(CC(=O)NC2CCCC2)S(=O)(=O)c2c(C)[nH]c(=O)[nH]c2=O)cc1 | % | 15.7
COc1ccc(N2CCN(C(c3cccs3)C(C)NC(=O)c3ccco3)CC2)cc1 (stereo not drawn) | % | -7.1
